tested on: Stellaria media; test: Post-emergence herbicidal action against harmful plants; format: in vivo; settings: 504 h, dosage 80 g/ha, visual rating after about 3 weeks (Table D), read-out: Herbicidal action against STEME
measured-attribute: pest or weed control at 80 g/ha (%)
Write the number in % without appending the unit.

Entry under test: CCN(C)C(=O)COc1c(S(=O)(=O)CC)ccc(C(=O)C2=C(O)CCCC2=O)c1Cl [Compound S6, reference compound] . Its pest or weed control at 80 g/ha was 90

Entry under test: `CCN(C)C(=O)COc1c(S(=O)(=O)CC)ccc(C(=O)C2=C(O)CCCC2=O)c1C(F)(F)F` . Its pest or weed control at 80 g/ha was 100

Entry under test: CCN(C)C(=O)COc1c(S(C)(=O)=O)ccc(C(=O)C2=C(O)CCCC2=O)c1Cl [Compound S7, reference compound] . Its pest or weed control at 80 g/ha was 90

Entry under test: `CN(C)C(=O)COc1c(S(C)(=O)=O)ccc(C(=O)C2=C(O)CCCC2=O)c1C(F)(F)F` . Its pest or weed control at 80 g/ha was 100

Entry under test: CCS(=O)(=O)c1ccc(C(=O)C2=C(O)CCCC2=O)c(Cl)c1OCC(=O)N(C)C [Compound S5, reference compound] . Its pest or weed control at 80 g/ha was 80

Entry under test: CN(C)C(=O)COc1c(Cl)ccc(C(=O)C2=C(O)CCCC2=O)c1C(F)(F)F [Compound E1] . Its pest or weed control at 80 g/ha was 90

Entry under test: CN(C)C(=O)COc1c(S(C)(=O)=O)ccc(C(=O)C2=C(O)CCCC2=O)c1Cl [Compound S4, reference compound] . Its pest or weed control at 80 g/ha was 90
